These molecules were tested on Aspergillus flavus; MIC is the recorded read-out.
Please respond with the number in µM and leave the unit unwritten.

{"columns": ["molecule", "unit_info", "MIC"],
 "data": [
  ["CCCCCCCCCC#CCCCCC(=O)O", "µM", 198],
  ["CN(C/C=C/C#CC(C)(C)C)Cc1cccc2ccccc12", "µM", 2.1]
]}

Find the measured MIC: item CC(=O)N1CCN(c2ccc(OCC3COC(Cn4ccnc4)(c4ccc(Cl)cc4Cl)O3)cc2)CC1 (centres undefined) , target or system Aspergillus flavus.
4.7

Find the measured MIC: item C[C@@H]1[C@H](O)[C@@H](C)/C=C/C=C/C=C/C=C/C=C/C=C/C=C/[C@H](O[C@@H]2O[C@H](C)[C@@H](O)[C@H](N)[C@@H]2O)C[C@@H]2O[C@](O)(C[C@@H](O)C[C@@H](O)[C@H](O)CC[C@@H](O)C[C@@H](O)CC(=O)O[C@H]1C)C[C@H](O)[C@H]2C(=O)O , target or system Aspergillus flavus.
2.7
